Experimental Target: Calcitonin gene-related peptide type 1 receptor (Homo sapiens, UniProt O60894+Q16602)
Sequence (Q16602 whole entry, one chain of several): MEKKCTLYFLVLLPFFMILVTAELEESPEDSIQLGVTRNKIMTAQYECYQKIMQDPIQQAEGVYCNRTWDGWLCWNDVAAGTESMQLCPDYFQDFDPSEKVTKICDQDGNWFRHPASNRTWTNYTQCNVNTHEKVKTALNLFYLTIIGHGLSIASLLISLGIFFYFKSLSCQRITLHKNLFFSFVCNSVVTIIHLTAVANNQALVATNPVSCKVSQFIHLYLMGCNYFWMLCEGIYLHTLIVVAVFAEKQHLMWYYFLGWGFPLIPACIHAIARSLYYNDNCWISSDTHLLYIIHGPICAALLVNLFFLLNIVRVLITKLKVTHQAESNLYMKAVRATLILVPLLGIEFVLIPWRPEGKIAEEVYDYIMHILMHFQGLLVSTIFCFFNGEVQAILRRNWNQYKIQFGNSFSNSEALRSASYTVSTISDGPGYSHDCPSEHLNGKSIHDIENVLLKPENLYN
pIC50: −log10 of the molar value.

| Smiles Data | pIC50 |
| --- | --- |
| Cc1cc(C[C@@H](NC(=O)c2cnc3c(c2)C[C@@]2(C3)C(=O)Nc3ncccc32)C(=O)N(C)C)cc2cn[nH]c12 | 8.00 |

* * *

Experimental Target: Tyrosine-protein kinase JAK2 (Homo sapiens, UniProt O60674)
Sequence (O60674 whole entry): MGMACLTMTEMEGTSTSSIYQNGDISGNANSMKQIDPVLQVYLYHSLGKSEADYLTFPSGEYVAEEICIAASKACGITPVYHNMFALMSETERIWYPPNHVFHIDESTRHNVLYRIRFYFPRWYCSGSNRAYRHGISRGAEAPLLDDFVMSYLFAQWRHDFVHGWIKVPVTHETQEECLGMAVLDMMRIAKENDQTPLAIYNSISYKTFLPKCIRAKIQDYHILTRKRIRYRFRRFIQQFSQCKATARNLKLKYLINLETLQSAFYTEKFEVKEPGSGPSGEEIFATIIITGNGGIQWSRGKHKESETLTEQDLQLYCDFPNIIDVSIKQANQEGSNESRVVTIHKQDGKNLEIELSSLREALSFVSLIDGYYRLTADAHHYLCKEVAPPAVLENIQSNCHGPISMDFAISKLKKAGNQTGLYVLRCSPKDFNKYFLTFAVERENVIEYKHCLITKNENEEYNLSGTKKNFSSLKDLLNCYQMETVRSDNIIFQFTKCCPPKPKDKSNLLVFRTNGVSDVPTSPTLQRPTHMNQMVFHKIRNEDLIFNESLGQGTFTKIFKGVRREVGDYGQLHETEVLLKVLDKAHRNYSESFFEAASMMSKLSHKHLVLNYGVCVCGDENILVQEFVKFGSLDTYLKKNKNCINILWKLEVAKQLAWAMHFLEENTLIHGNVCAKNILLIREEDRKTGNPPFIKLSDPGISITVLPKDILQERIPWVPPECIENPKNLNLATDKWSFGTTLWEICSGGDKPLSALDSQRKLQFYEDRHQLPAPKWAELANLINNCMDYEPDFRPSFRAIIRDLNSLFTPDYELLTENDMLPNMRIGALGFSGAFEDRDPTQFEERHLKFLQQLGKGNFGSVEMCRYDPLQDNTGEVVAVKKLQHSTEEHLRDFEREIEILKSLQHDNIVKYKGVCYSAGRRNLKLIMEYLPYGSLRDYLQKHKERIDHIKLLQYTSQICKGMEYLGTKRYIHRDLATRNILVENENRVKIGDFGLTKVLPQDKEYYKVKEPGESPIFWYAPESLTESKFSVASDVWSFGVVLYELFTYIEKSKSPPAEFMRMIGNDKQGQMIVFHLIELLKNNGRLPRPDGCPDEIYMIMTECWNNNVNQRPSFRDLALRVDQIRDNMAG

| Smiles Data | IC50 / nM |
| --- | --- |
| Cc1cnc2nc1Nc1cccc(c1)COC/C=C/COCc1cc(ccc1OCCN1CCCC1)N2 | 6 |

* * *

Sequence of the target: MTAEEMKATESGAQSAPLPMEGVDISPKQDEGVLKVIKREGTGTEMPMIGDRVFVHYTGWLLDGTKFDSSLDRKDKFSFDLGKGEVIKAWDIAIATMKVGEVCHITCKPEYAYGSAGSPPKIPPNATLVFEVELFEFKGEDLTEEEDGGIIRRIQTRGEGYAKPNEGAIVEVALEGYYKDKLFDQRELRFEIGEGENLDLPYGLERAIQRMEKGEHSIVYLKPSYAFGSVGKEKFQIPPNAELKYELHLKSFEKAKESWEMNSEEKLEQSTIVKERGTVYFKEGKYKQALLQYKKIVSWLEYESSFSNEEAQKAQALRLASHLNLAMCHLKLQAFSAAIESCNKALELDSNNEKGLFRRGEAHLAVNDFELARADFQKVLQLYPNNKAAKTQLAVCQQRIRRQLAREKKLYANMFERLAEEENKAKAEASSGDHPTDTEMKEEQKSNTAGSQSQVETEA

| Smiles Data | Kd |
| --- | --- |
| COc1cccc([C@@H](CCc2ccc(OC)c(OC)c2)OC(=O)[C@@H]2CCCCN2C(=O)[C@H](c2cc(OC)c(OC)c(OC)c2)C2CCCCC2)c1 | > 10 µM |

* * *

Experimental Target: UniProt:P00734
Measured Metric: Ki

| Smiles Data | Observed Value |
| --- | --- |
| N=C(N)c1ccc(CNC(=O)[C@H](Cc2cccc(C(=N)N)c2)NC(=O)[C@@H](CCCc2ccccc2)NS(=O)(=O)Cc2cccc(C(=O)O)c2)cc1 | 667 nM |

* * *

Test Name: in vitro
Test Parameters: human, liver microsomes

| Smiles Data | CLint scaled, mL/min/kg |
| --- | --- |
| O=C1NCc2ccccc2-c2cc(c(F)cc2F)NS(=O)(=O)c2cc1cc(Cl)c2O | 3.27 |
| COC(=O)c1cc(Cl)c(O)c(S(=O)(=O)Nc2cc(-c3ccccc3)c(F)cc2F)c1 | 372 |

* * *

Experimental Target: ATP-citrate synthase (Homo sapiens, UniProt P53396)
Sequence (P53396 whole entry): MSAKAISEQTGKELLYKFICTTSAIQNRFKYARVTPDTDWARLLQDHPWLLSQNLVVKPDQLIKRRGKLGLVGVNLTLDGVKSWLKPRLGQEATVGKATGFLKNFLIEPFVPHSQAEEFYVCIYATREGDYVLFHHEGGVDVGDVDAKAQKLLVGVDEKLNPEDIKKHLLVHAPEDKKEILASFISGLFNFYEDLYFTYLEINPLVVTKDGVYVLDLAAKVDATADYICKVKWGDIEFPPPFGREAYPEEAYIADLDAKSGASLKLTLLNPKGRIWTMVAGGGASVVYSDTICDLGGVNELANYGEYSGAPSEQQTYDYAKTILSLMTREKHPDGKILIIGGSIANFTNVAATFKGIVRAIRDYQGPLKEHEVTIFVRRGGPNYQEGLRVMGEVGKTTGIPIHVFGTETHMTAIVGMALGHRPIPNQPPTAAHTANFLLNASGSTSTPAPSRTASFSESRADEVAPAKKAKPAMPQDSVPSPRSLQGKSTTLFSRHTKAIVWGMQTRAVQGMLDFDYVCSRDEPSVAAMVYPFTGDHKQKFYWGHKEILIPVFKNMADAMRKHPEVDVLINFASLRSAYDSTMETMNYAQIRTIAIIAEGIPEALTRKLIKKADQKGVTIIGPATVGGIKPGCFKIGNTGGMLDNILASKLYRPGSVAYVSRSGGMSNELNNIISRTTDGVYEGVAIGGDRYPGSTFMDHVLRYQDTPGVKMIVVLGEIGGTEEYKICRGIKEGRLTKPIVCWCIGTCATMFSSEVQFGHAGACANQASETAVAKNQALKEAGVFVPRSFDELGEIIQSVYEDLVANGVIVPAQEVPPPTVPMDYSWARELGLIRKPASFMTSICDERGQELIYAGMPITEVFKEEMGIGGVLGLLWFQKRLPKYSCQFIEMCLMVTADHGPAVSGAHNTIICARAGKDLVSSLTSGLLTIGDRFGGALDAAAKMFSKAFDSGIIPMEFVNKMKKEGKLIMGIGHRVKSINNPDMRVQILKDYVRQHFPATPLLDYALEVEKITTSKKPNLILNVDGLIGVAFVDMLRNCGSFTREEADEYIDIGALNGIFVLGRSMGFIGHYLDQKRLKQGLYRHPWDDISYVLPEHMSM
Measured Metric: IC50 (nM)

| Smiles Data | Experimental Target | Observed Value |
| --- | --- | --- |
| COC(=O)c1cc(Cl)c(O)c(S(=O)(=O)Nc2cc(-c3ccccc3)c(F)cc2F)c1 | ATP-citrate synthase (Homo sapiens, UniProt P53396) | 44 |

* * *

Experimental Target: Plasminogen (Homo sapiens)
Sequence (P00747 97-580 limits assumed): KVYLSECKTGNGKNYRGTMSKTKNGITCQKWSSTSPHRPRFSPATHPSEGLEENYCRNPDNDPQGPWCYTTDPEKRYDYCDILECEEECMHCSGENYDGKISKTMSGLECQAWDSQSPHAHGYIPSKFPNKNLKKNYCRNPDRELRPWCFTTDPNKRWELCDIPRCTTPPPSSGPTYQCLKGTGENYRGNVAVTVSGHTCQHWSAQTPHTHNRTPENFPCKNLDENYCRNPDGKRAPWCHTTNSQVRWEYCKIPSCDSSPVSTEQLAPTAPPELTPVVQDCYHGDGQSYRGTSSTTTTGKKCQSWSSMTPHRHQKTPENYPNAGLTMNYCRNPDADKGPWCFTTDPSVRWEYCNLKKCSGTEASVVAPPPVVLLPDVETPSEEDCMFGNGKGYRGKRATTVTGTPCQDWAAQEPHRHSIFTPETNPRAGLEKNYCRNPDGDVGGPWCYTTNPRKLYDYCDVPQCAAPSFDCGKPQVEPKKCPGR
Sequence (P00747 581-810 limits assumed): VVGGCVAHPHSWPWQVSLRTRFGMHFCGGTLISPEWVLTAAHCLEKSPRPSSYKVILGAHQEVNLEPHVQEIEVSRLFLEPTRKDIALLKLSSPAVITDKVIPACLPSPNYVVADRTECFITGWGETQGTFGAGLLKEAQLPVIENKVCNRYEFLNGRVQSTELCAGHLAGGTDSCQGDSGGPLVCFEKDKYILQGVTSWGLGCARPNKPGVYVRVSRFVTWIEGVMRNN
pKi: −log10 of the molar value.

| Smiles Data | pKi |
| --- | --- |
| N=C(N)c1ccc(CNC(=O)[C@H](Cc2cccc(C(=N)N)c2)NC(=O)[C@@H](CCCc2ccccc2)NS(=O)(=O)Cc2cccc(C(=O)O)c2)cc1 | 9.09 |
